- target.desc: all three PPTases
- experiment.notes: BpsA coupled PPTase inhibition assay, summary over all three PPTases
- experimental.conditions: read-out: K, values, range over the three PPTases; converted from IC50 with Km of each PPTase
property.measured: Ki

Ask: Need Ki of O=Nc1ccc2oc(=O)ccc2c1 , thanks.
Result: 0.5 to 7.5 µM

###

- target.desc: Sfp (Bacillus spizizenii, UniProt G4NQW2)
- Sequence (G4NQW2 entry or part of it): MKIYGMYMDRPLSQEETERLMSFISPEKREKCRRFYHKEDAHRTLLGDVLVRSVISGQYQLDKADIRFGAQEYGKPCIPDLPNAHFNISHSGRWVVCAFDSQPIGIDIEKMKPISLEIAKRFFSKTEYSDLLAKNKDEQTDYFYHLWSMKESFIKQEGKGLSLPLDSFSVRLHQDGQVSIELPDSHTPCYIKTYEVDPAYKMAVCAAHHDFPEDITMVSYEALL
- experiment.notes: BpsA coupled PPTase inhibition assay, Sfp
- Type: biochemical, B. subtilis subsp. spizizenii ATCC6633
- experimental.conditions: Ki, Sfp; 1.25 μM CoA; Cheng-Prusoff, competitive inhibition
property.measured: pKi
Just the number, please; pKi means minus log10 of the concentration in mol/L.

Ask: Need pKi of O=Nc1ccc2oc(=O)ccc2c1 , thanks.
Result: 6.15

###

- target.desc: PP1183 (Pseudomonas putida, UniProt Q88NM4)
- Sequence (Q88NM4 entry or part of it): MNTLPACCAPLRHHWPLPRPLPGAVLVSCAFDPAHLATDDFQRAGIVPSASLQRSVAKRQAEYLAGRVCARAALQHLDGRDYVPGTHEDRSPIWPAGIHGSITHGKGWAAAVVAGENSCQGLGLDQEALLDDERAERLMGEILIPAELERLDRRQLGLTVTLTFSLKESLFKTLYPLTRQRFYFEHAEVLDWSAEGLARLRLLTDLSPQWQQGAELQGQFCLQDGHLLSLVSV
- experiment.notes: BpsA coupled PPTase inhibition assay, PP1183
- Type: biochemical, P. putida KT2440
- experimental.conditions: Ki, PP1183; 1.25 μM CoA; Cheng-Prusoff, competitive inhibition
property.measured: Ki

Ask: Need Ki of O=Nc1ccc2oc(=O)ccc2c1 , thanks.
Result: 3.3 µM
